Ref: PubChem BioAssay AID588342

# TARGET_OR_SYSTEM: Luciferin 4-monooxygenase (Photinus pyralis) (UniProt P08659)
# Sequence (P08659 whole entry, looked up): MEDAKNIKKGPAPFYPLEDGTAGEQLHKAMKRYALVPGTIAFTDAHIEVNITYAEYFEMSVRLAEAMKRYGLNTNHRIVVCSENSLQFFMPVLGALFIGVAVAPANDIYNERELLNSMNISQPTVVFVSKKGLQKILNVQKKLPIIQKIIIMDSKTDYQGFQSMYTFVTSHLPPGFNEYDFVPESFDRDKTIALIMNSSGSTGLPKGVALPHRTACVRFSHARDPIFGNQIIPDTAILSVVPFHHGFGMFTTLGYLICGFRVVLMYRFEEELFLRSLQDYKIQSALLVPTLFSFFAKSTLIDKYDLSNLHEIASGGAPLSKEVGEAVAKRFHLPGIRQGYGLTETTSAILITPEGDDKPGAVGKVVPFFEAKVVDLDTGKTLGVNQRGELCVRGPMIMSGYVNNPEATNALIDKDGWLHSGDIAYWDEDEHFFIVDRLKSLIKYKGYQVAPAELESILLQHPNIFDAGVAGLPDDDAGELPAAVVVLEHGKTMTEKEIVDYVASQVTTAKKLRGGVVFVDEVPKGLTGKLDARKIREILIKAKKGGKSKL
# ASSAY_OVERVIEW: qHTS profiling assay for firefly luciferase inhibitor/activator using purifed enzyme and Km concentrations of substrates (counterscreen for miR-21 project); further: nearly all actives have a fitted effect of over 55% in size; further: potency means the concentration at half of the fitted maximal effect
# CONDITION_INFO: purified FLuc, luminescence inhibition; series mostly up to 57.5 µM
The whole screen tested about 360,000 compounds, of which about 25,000 (6.9%) were called active. Inconclusive results (about 9%) are left out. This excerpt belongs to a sample that is enriched for actives.
QUANTITY_KIND: Potency

These solved cases illustrate the format of a correct answer.
{"COMPOUND": "NS(=O)(=O)c1ccc(-c2ccc(/C=C3\\SC(=O)NC3=O)o2)cc1", "Potency": "13.5 µM (active)"}
{"COMPOUND": "COc1ccc2c(c1)CCC/C2=N\\OC(=O)c1ccccc1F", "Potency": "12 µM (active)"}
{"COMPOUND": "O=C(N/N=C/c1ccc(OCC2COCCO2)cc1)c1ccc(Br)cc1 (stereo unspecified)", "Potency": "inactive"}
{"COMPOUND": "CC(=O)c1cc2c(cc1N)OCO2", "Potency": "inactive"}

Simply: Cc1c(Cl)cccc1NC(=O)C1CCCN(c2ncnc3onc(C)c23)C1 (stereo unspecified) , Luciferin 4-monooxygenase (Photinus pyralis) (UniProt P08659), Potency = inactive

Measured on Luciferin 4-monooxygenase (Photinus pyralis) (UniProt P08659), COc1cc2c(cc1OC)C(COc1ccc(F)cc1)N(C(=O)c1ccccc1F)CC2 (stereo unspecified) has a documented Potency of inactive

Query `COC(=O)N/N=C/c1ccc(/C=N/NC(=O)OC)cc1` on Luciferin 4-monooxygenase (Photinus pyralis) (UniProt P08659); Potency returned: inactive

Lab entry: Luciferin 4-monooxygenase (Photinus pyralis) (UniProt P08659) assay, compound COC(=O)NNC(=O)C1CCC(C)CC1 (stereo unspecified) , Potency = inactive
